# system: T1, Human β-cardiac myosin S2 peptide, wild-type (MYH7, 19 residues) (human, also: in FRET: FITC on N-terminus of one monomer, terbium-DTPA-cytosine chelate on C-terminal Lys of the other)
# T1 construct: Chemically synthesized; forms a coiled-coil dimer; also called human cardiac myosin S2 peptide; cardiac muscle myosin S2^pep
# T1 peptide: EMNERLEDEEEMNAELTAK
# assay protocol: competitive ELISA, printed as 'binding efficiency'
Where no end group is shown, it is not given here.
measured attribute: pKd
Convention used: pKd is expressed as -log10 of the molar concentration.

// returns reported pKd for input KKKKKKKKFKAKKKKKK (also called stabilizing peptide; unlabeled stabilizer) [Stabilizer peptide]
9.00
